target: EGFR (L858R T790M C797S) (Homo sapiens, UniProt P00533, C797S/L858R/T790M); construct: purchased SignalChem E10-122VG; assay: Biochemical EGFR inhibition assay (Caliper mobility shift), EGFR LRTMCS mutant; settings: LRTMCS (PH) IC50 (nM) @ 1 mM ATP (Num)
Sequence (P00533 25-1210 T790M/C797S/L858R): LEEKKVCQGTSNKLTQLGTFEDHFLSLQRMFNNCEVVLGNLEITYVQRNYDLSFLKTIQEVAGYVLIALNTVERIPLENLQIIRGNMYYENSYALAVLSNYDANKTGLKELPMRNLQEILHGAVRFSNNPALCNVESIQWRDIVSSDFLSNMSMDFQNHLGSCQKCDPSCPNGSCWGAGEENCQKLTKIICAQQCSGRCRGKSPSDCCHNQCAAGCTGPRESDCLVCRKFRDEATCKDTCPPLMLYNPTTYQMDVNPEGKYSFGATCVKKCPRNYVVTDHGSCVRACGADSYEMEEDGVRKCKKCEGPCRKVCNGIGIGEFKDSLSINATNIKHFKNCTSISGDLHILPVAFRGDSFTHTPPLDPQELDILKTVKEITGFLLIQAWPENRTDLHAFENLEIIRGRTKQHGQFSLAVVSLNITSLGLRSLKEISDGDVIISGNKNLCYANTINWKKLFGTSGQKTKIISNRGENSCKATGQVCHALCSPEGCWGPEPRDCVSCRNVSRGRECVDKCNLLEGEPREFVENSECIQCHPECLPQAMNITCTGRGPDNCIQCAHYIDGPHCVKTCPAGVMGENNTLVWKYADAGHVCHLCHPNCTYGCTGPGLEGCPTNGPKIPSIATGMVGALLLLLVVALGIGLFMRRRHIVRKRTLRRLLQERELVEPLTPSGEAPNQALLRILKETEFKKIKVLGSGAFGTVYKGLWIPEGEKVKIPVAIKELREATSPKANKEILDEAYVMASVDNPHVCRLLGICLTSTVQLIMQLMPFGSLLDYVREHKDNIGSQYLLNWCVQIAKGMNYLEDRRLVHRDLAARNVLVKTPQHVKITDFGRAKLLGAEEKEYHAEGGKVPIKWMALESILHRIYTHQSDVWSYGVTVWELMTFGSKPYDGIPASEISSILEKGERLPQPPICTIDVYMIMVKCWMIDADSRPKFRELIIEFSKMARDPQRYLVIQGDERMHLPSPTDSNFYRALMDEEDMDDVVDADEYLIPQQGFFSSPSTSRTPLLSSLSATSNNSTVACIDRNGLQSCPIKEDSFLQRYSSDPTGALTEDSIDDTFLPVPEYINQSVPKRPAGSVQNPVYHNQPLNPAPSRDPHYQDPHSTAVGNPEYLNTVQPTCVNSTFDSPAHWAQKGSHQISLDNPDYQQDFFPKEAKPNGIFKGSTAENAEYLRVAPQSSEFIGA
What IC50 was measured for each of the following?

// CC(C)c1cnc(C(=O)N[C@H]2CC2(F)F)c2cnc(Nc3ccnc(N4CC[C@@H](O)[C@@](C)(F)C4)n3)cc12 (single isomer, unassigned) : IC50 value = 15 to 20 nM

Field IC50 (entry CC(C)c1ccc(OCCc2cncn2C)c2cnc(Nc3ccnc(N4CC[C@](C)(O)[C@H](F)C4)n3)cc12 ) reads 15 to 20 nM

Record summary for CNCCO[C@@H]1CCN(c2nccc(Nc3cc4c(C(C)C)ccc(OC[C@@H]5COC(=O)N5C)c4cn3)n2)C[C@@H]1F : reported IC50 = 15 to 20 nM

// field: IC50; key: CC(=O)N1CC(COc2ccc(C(C)C)c3cc(Nc4ccnc(N5CCC(C)(O)CC5)n4)ncc23)C1 ; value = 20 to 30 nM

According to the records, this compound CO[C@H]1CCN(c2nccc(Nc3cc4c(C(C)C)ccc(OCCCNC(C)=O)c4cn3)n2)C[C@@H]1O (single isomer, unassigned) displays IC50 of < 15 nM

IC50 reported for this compound CO[C@H]1C[C@H](NC(=O)c2ncc(C(C)C)c3cc(Nc4ccnc(N5CC[C@@H](O)[C@@](C)(F)C5)n4)ncc23)C1 : < 15 nM

// field: IC50; key: CC(C)c1cnc(C(=O)NC2CS(=O)(=O)C2)c2cnc(Nc3ccnc(N4CC[C@@H](O)[C@@](C)(F)C4)n3)cc12 ; value = < 15 nM

In plain terms, CC(C)c1cnc(N(C)C)c2cnc(Nc3ccnc(N4CC[C@@H](O)[C@@H](F)C4)n3)cc12 has a documented IC50 of 30 to 100 nM

Entry CC(C)c1ccc(OCCc2cnnn2C)c2cnc(Nc3ccnc(N4CC[C@](C)(O)[C@H](F)C4)n3)cc12 ; IC50 = 15 to 20 nM

Documented IC50 of CC(C)c1cnc(C(=O)N[C@H]2C[C@@](C)(O)C2)c2cnc(Nc3ccnc(N4CC[C@@H](O)[C@@](C)(F)C4)n3)cc12 : < 15 nM

Entry CC(C)c1cnc(C(=O)NC2CN(CCF)C2)c2cnc(Nc3ccnc(N4CC[C@@H](O)[C@@](C)(F)C4)n3)cc12 , IC50 reported as < 15 nM

# IC50 (compound: CC(C)c1ccc(OCCn2cnnc2)c2cnc(Nc3ccnc(N4CC[C@@](C)(O)[C@@H](F)C4)n3)cc12 ) is < 15 nM

What the record says about CC(C)c1cnc(C(=O)N[C@H]2CN(C)C[C@H]2F)c2cnc(Nc3ccnc(N4CC[C@@H](O)[C@@](C)(F)C4)n3)cc12 (single isomer, unassigned) : IC50 is < 15 nM

In plain terms, CC(C)c1cnc(C(=O)NC2CN(C)C2)c2cnc(Nc3ccnc(N4CC[C@@H](O)[C@@](C)(F)C4)n3)cc12 has a documented IC50 of < 15 nM

The compound listed as CC(C)c1cnc(C(N)=O)c2cnc(Nc3ccnc(N4CC[C@@H](O)[C@@](C)(F)C4)n3)cc12 (single isomer, unassigned) shows IC50 equal to 20 to 30 nM
